# TEST DESCRIPTION: Primary qHTS for inhibitors of nuclear receptor binding SET domain protein 2 (NSD2) in an isogenic RCH-ACV NSD2 p.E1099K mutant (9B) (AID 1645876); further: nearly all actives have a fitted effect of over 70% in size
# TEST CONTEXT: RCH-ACV (leukaemia line) NSD2 E1099K (9B) viability, CellTiter-Glo, 72 h; series mostly up to 44.9 µM
Records with an inconclusive call do not appear. Calls of active or inactive are those of the source. The call rests on the fitted dose curve; in most records, active means well fitted inhibition curve with a large enough effect; inconclusive means small, poorly fitted or top-dose-only effect; inactive means flat fitted curve, though single readings scatter.
Answer with one of the outcomes given here: 1 (yes) (active), 0 (no) (inactive)

// known answers, use as guide
MOLECULE	ASSIGNED LABEL
CC1CCCC(O)CC(=O)Cc2cc(O)cc(O)c2C(=O)O1 (configuration not stated)	0 (no)
COc1cc(C(=O)N2CC[C@@H](O)[C@@H](N)C2)cc2nc(-c3cc4ccccc4n3CC3CC3)n(C)c12	1 (yes)
C=C1C(=O)CC2OC2(C)CC2OC(=O)C(=C)C2C(O)C1OC(=O)/C(C)=C\C (configuration not stated)	1 (yes)
CC(C)C(=O)O[C@H]1[C@@H]2[C@H](C)C(=O)O[C@@H]2C[C@@H](C)[C@@H]2C=CC(=O)[C@]21C	1 (yes)
C=C[C@H]1CN2CCC1C[C@H]2[C@H](O)c1ccnc2ccccc12 (some centres not stated)	0 (no)
N#Cc1ccccc1-c1cc(-c2ccccn2)cn(-c2ccccc2)c1=O	0 (no)
C[C@@H]1C[C@@H](O)[C@]2(O)O[C@@H]3C[C@@]4(C=O)C(CC[C@@H]5C4CC[C@]4(C)[C@@H](C6=CC(=O)OC6)CC[C@]54O)C[C@H]3O[C@@H]2O1 (some centres not stated)	1 (yes)
C=C(C)[C@@]12O[C@@H]1[C@@]1(C)C(=C[C@H]2O)CC[C@@H](O)[C@@H]1C	0 (no)

Data request: # lookup: test call for CC(=O)OC[C@]12C[C@H](OC(=O)CC(C)C)C(C)=C[C@H]1O[C@@H]1[C@H](O)C[C@@]2(C)[C@]12CO2
Data returned: 1 (yes)

Data request: Per the records of this test, what outcome belongs to CC(=O)OC[C@]12C[C@H](O)C(C)=C[C@H]1O[C@@H]1[C@H](O)[C@@H](O)[C@@]2(C)[C@]12CO2 ?
Data returned: 1 (yes)

Data request: How was CCC1(O)CCC2C3CCC4=CC(=O)CCC4C3CCC21CC (configuration not stated) classified in this test?
Data returned: 1 (yes)

Data request: Short answer needed: outcome of this test for C/C=C(\C)C(O)C(C)/C=C(C)/C=C/C/C(C)=C/Cc1nc(OC)c(OC)c(O[C@@H]2O[C@@H](C)[C@H](O)[C@@H](O)[C@H]2O)c1C (some centres not stated) ?
Data returned: 1 (yes)

Data request: Could you please tell me the result logged for COc1ccc2c3c4n(c2c1)[C@@H](C=C(C)C)OOC(C)(C)C[C@@H]4N1C(=O)[C@@H]2CCCN2C(=O)[C@]1(O)[C@H]3OCC=C(C)C in this assay?
Data returned: 0 (no)

Data request: Record request — test call for CN1CCCCC1Cn1cc(C(=O)c2cc([N+](=O)[O-])ccc2I)c2ccccc21 (configuration not stated)
Data returned: 0 (no)

Data request: # outcome recorded in this test, key = CC(C)=CCC[C@]1(C)C=Cc2c(O)c3c(c(CC=C(C)C)c2O1)O[C@]12C(=C[C@@H]4CC1C(C)(C)O[C@@]2(C/C=C(/C)C(=O)O)C4=O)C3=O
Data returned: 1 (yes)

Data request: Recorded call for C/C=C1/CN2CC[C@]34C(=Nc5ccccc53)[C@@H]2C[C@@H]1[C@H]4C(=O)OC ?
Data returned: 0 (no)

Data request: Outcome? CN1C(=O)CN=C(c2ccccc2Cl)c2cc(Cl)ccc21
Data returned: 0 (no)

Data request: How did this test come out for Cc1ncc(OC[C@@]2(c3cccc(F)c3)C[C@H]2C(=O)Nc2ccc(F)cn2)c(C)n1 ?
Data returned: 0 (no)

Data request: For CN[C@@H]1C[C@H]2O[C@@](C)([C@@H]1OC)n1c3ccccc3c3c4c(c5c6ccccc6n2c5c31)C(=O)NC4 , which call appears in the assay record?
Data returned: 1 (yes)

Data provenance is PubChem BioAssay (NCATS).
